Reference for the values: PubChem BioAssay (Tox21)

test details: qHTS assay to identify small molecule antagonists of the retinoic acid receptor (RAR) signaling pathway (AID 1159552; further: on the % scale 0 is the no-effect control and ±100 the full control effect; nearly all actives have a fitted effect of over 50% in size)
particulars: C3RL4 RARE luciferase reporter, retinol-stimulated, 6 h; series mostly up to 92.4 µM
Excerpt: National Center for Advancing Translational Sciences [NCATS] NIH Chemical Genomics Center [NCGC] U.S. Environmental Protection Agency [EPA] National Institutes of Environmental Health Sciences [NIEHS] National Toxicology Program [NTP] U.S. Food and Drug Administration [FDA] […]
Results filed as inconclusive are left out. Calls of active or inactive are those of the source. The call rests on the fitted dose curve; in most records, active means well fitted inhibition curve with a large enough effect in the repeat runs; inconclusive means weak or mixed curves, or effect the other way; inactive means no such curve, though single readings can be large or run the other way.
measure: activity, negative = inhibition

{"columns": ["molecule", "activity, negative = inhibition"],
 "data": [
  ["OCCNCc1ccccc1", "inactive"],
  ["CCCCC1=NC2(CCCC2)C(=O)N1Cc1ccc(-c2ccccc2-c2nn[nH]n2)cc1", "inactive"],
  ["OC(C#CCN1CCCC1)(c1ccccc1)c1ccccc1", "inactive"],
  ["CCOC(=O)C(O)c1ccccc1 (stereo not drawn)", "inactive"],
  ["ClCCOCCOCCCl", "inactive"]
]}

Parameters: items (list). Returns: activity, negative = inhibition for each item.
1. NCC(=O)O
2. O=S(=O)(Oc1ccc(Cl)cc1)c1ccccc1
3. COc1cc(Cl)c(OC)cc1N
4. C[C@@H](c1ncncc1F)C(O)(Cn1cncn1)c1ccc(F)cc1F (stereo partly drawn)
5. Cc1oc(-c2ccccc2)nc1CCOc1cccc2c1ccn2CCC(=O)O

Result:
["0.472% [at 19 µM] (inactive)", "inactive", "inactive", "inactive", "inactive"]

* * *

test details: qHTS assay to identify small molecule antagonists of the estrogen receptor alpha (ER-alpha) signaling pathway - cell viability counter screen (AID 743074);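 further: HEK293 cells carrying ER-alpha-UAS-bla reporter stimulated with 17beta-estradiol; nearly all actives have a fitted effect of over 45% in size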
particulars: ERalpha-bla HEK293 viability, CellTiter-Glo luminescence, 18 h; series mostly up to 69.4 µM
Inconclusive results are not listed. Active and inactive are the calls of the source. Calls follow the shape of the full dose curve.
Select the correct class. Options are YES (active), NO (inactive) and nothing else.

{"columns": ["compound", "category"],
 "data": [
  ["C=C(C)C(=O)OCC", "NO"],
  ["Cc1ncc(CO)c(C=O)c1O", "NO"],
  ["O=C(O)c1ccccc1Cl", "NO"],
  ["CCN(CC)CCNC(=O)c1cc(Br)c(N)cc1OC", "NO"],
  ["CCCCCCCCCCCCN1CCCCCC1=O", "YES"]
]}

Request: How did this test come out for `O=C(Cl)c1cc(C(=O)Cl)cc(C(=O)Cl)c1` ?
Result: NO

Request: # iterate: `C#CCN(C)CCCOc1ccc(Cl)cc1Cl`
Result: NO

Request: # iterate: `CCOC(=O)c1cccnc1`
Result: NO

Request: # iterate: `C/C=C/C=C/CO`
Result: NO

Request: # iterate: `CCOc1ccc(N)c([N+](=O)[O-])c1`
Result: NO

* * *

target of assay: Nuclear receptor ROR-gamma (Homo sapiens) (UniProt P51449)
test details: qHTS assay to identify small molecule antagonists of the retinoid-related orphan receptor gamma (ROR-gamma) signaling pathway (AID 1159521; further: nearly all actives have a fitted effect of over 50% in size)
particulars: Tet-on RORgamma CHO cells, RORE-luciferase, 16 h; series mostly up to 92.4 µM
Results filed as inconclusive are left out. Active and inactive are the calls of the source. Calls come from the whole dose curve; as a rule, active = well fitted inhibition curve with a large enough effect in the repeat runs; inconclusive = weak or mixed curves, or effect the other way; inactive = no such curve, though single readings can be large or run the other way.
Select the correct class. Options are active, inactive and nothing else.

Examples with answers:
{"columns": ["compound", "target of assay", "category"],
 "data": [
  ["Cc1oc2c(NC(=O)c3c(Cl)cccc3Cl)cccc2c1C(C)(C)O", "Nuclear receptor ROR-gamma (Homo sapiens) (UniProt P51449)", "active"],
  ["CCc1c(C(=O)NN2CCCCC2)nn(-c2ccc(Cl)cc2Cl)c1-c1ccc(Br)cc1", "Nuclear receptor ROR-gamma (Homo sapiens) (UniProt P51449)", "active"],
  ["O[C@@H](COc1cccc2ncccc12)CN1CCN(C2c3ccccc3[C@@H]3[C@H](c4ccccc42)C3(F)F)CC1 (stereo partly drawn)", "Nuclear receptor ROR-gamma (Homo sapiens) (UniProt P51449)", "inactive"],
  ["CCCCCCCCCCCCN1CCCCCC1=O", "Nuclear receptor ROR-gamma (Homo sapiens) (UniProt P51449)", "inactive"],
  ["CCOC(=O)C(O)c1ccccc1 (stereo not drawn)", "Nuclear receptor ROR-gamma (Homo sapiens) (UniProt P51449)", "inactive"]
]}

Request: How did this test come out for `CCCCCCCCCc1ccc(OCCOCCO)cc1` ?
Result: active

Request: # iterate: `CCOc1ccc(N)c([N+](=O)[O-])c1`
Result: inactive

Request: # iterate: `O=C(OCCc1ccccc1)c1ccccc1`
Result: inactive

Request: # iterate: `CCC(CC)Nc1ccc(C)c(C)c1`
Result: inactive

Request: # iterate: `O=C(CS)Nc1ccccc1`
Result: inactive

Request: # iterate: `Nc1ccc(S(=O)(=O)Nc2ccccc2)cc1`
Result: inactive

Request: # iterate: `COc1ccc(C(=O)c2ccc(OC)cc2O)c(O)c1`
Result: inactive

Request: # iterate: `CC(C)=CCC/C(C)=C/CC/C(C)=C/CO`
Result: inactive

* * *

test details: qHTS assay to identify small molecule antagonists of the constitutive androstane receptor (CAR) signaling pathway - cell viability counter screen (AID 1224837); further: nearly all actives have a fitted effect of over 45% in size
particulars: HepG2-CYP2B6-hCAR viability, CellTiter-Fluor, 23 h, co-treated with 50 nM CITCO; series mostly up to 92.4 µM
Records with an inconclusive call do not appear. Calls of active or inactive are those of the source. The call rests on the fitted dose curve; in most records, active means well fitted cell-killing curve with a large enough effect in the repeat runs; inconclusive means weak or mixed curves, or effect the other way; inactive means flat fitted curve, though single readings scatter.
Select the correct class. Options are YES (active), NO (inactive) and nothing else.

Examples with answers:
{"columns": ["compound", "category"],
 "data": [
  ["O=C(O)c1ccc(-n2nc(-c3ccccc3O)nc2-c2ccccc2O)cc1", "NO"],
  ["CCCCC(CC)CN1C(=O)C2C3C=CC(C3)C2C1=O (stereo unspecified)", "NO"],
  ["CCCCC(CC)COC(=O)COc1ccc(Cl)cc1Cl (stereo unspecified)", "NO"],
  ["CCCCC", "NO"],
  ["CCNc1cc(O)ccc1C", "NO"],
  ["CCCCC(CC)COC(=O)CCCCCCCCC(=O)OCC(CC)CCCC (stereo unspecified)", "NO"],
  ["CCCCCCCCCc1ccc(OCCOCCO)cc1", "YES"],
  ["C#Cc1cccc(Nc2ncnc3cc(OCCOC)c(OCCOC)cc23)c1", "NO"]
]}

Request: How did this test come out for `COc1ccc(C)cc1[N+](=O)[O-]` ?
Result: NO

Request: # iterate: `CCOc1ccc(N=Nc2ccc(/C=C/c3ccc(N=Nc4ccc(OCC)cc4)cc3S(=O)(=O)O)c(S(=O)(=O)O)c2)cc1`
Result: YES

Request: # iterate: `CN1C[C@H]2c3ccccc3Oc3ccc(Cl)cc3[C@@H]2C1`
Result: NO

Request: # iterate: `CCc1c(C(=O)NN2CCCCC2)nn(-c2ccc(Cl)cc2Cl)c1-c1ccc(Br)cc1`
Result: NO

Request: # iterate: `C=CC(=O)OCCOCCOC(=O)C=C`
Result: YES

Request: # iterate: `CN(C)CCN(Cc1ccc(Cl)cc1)c1ccccn1`
Result: NO

Request: # iterate: `CCOC(=O)COC(=O)c1cc(Oc2ccc(C(F)(F)F)cc2Cl)ccc1[N+](=O)[O-]`
Result: NO

Request: # iterate: `C[C@@H]1C[C@H]2[C@@H]3CCC4=CC(=O)C=C[C@]4(C)[C@@]3(F)[C@@H](O)C[C@]2(C)[C@@]1(O)C(=O)COC(=O)c1ccncc1`
Result: NO

Request: # iterate: COc1cc2c(cc1OC)C(C(C(=O)N(CCc1ccc(OC)c(OC)c1OC)CCc1ccc(OC)c(OC)c1OC)c1ccccc1)=NCC2 (stereo unspecified)
Result: NO

Request: # iterate: `O=S(=O)(Oc1ccc(Cl)cc1)c1ccccc1`
Result: NO

* * *

test details: qHTS assay to identify small molecule agonists of the endoplasmic reticulum stress response signaling pathway - cell viability counter screen (AID 1159517);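 further: HeLa cells carrying an ER stress response element beta-lactamase reporter; on the % scale 0 is the no-effect control and ±100 the full control effect; nearly all actives have a fitted effect of over 50% in size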
particulars: ESRE-bla HeLa viability, CellTiter-Glo luminescence, 5 h; series mostly up to 61 µM
Results filed as inconclusive are left out. The source made the active and inactive calls. The call rests on the fitted dose curve.
measure: activity change, negative = cytotoxicity

Use these answered entries as a reference point.
{"columns": ["compound", "activity change, negative = cytotoxicity"],
 "data": [
  ["O=CC1CC=CCC1 (configuration not stated)", "inactive"],
  ["CCCC(=O)Nc1ccc(O)c(C(C)=O)c1", "inactive"],
  ["CCC(C)c1cc(C(C)(C)C)c(O)c(C(C)(C)C)c1 (configuration not stated)", "inactive"],
  ["CCOc1ccc(O)cc1", "inactive"]
]}

Parameters: items (list). Returns: activity change, negative = cytotoxicity for each item.
1. CCOC(=O)Cc1cccc2ccccc12
2. O=C(O)c1ccc(S(=O)(=O)O)cc1C(=O)O
3. C[N+]1(C)CCC(OC(=O)C(O)(c2ccccc2)C2CCCC2)C1 (configuration not stated)
4. CN1CCC(N(Cc2cccs2)c2ccccc2)CC1
5. CCCCC(=O)OCC(=O)[C@H]1[C@H](C)C[C@H]2[C@@H]3C[C@H](F)C4=CC(=O)C=C[C@]4(C)[C@@]3(F)[C@@H](O)C[C@@]21C
6. O=C(O)c1ccc(-n2nc(-c3ccccc3O)nc2-c2ccccc2O)cc1
7. O=C1C(O)=C(O)C(=O)C(O)=C1O

Result:
inactive
inactive
inactive
inactive
inactive
inactive
inactive

Request: Tell me the measured activity change, negative = cytotoxicity of CCN(CC)CCOC(=O)C(Cc1cccc2ccccc12)CC1CCCO1 (configuration not stated) , please.
Result: inactive
